target-system: BRD4 bromo domain 2 [BRD4(2)] (Homo sapiens)
Construct: N-terminally His6-tagged BRD4(2) (amino acids 357-445)
protocol-details: BRD4/acetylated peptide H4 binding assay (TR-FRET), BRD4 bromo domain 2
setup-conditions: inhibition of BRD4(2)/Ac-H4 peptide interaction
From the text: Protein-Protein Interaction Assay: BRD4/Acetylated Peptide H4 Binding Assay To assess the BRD4(2) binding strength of the substances described in this application, the ability thereof to inhibit the interaction between BRD4(2) and acetylated histone H4 in a dose-dependent manner was quantified. […]
readout-label: pIC50
One number for each entry, as −log10 of the molar value.

Take a look at these entries with their results.
# compound, readout-label, result-value
rows = [
    ("C[C@@H]1C(=O)N(C)c2ccc(Nc3cccc(C(=O)N[C@H]4CC[C@H](N5CCN(CC6CC6)CC5)CC4)c3)nc2N1C1CCN(C(=O)OC(C)(C)C)CC1", "pIC50", 6.16),
    ("COCCN1c2nc(Nc3cccc(C(=O)N[C@H]4CC[C@H](N5CCN(CC6CC6)CC5)CC4)c3)ccc2N(C)C(=O)[C@H]1C", "pIC50", 6.71),
]

Required: pIC50, one value per compound below.
1. C[C@@H]1C(=O)N(C)c2ccc(Nc3cccc(S(=O)(=O)N4CC5(CCC5)C4)c3)nc2N1C1CCNCC1
2. C[C@@H]1C(=O)N(C)c2ccc(Nc3cccc(S(=O)(=O)N(C)C)c3)nc2N1C1CCOCC1
3. CC(C)CN1c2nc(Nc3cccc(S(=O)(=O)N[C@H]4CC[C@H](N5CCN(CC6CC6)CC5)CC4)c3)ccc2N(C)C(=O)[C@H]1C
4. C[C@@H]1C(=O)N(C)c2ccc(Nc3cccc(C(=O)NC4CCC(NC5CCN(C)CC5)CC4)c3)nc2N1C1CCOCC1 (stereo partly shown)
5. COCCN1c2nc(Nc3cccc(C(=O)NC4CCN(C)CC4)c3)ccc2N(C)C(=O)C1C (racemic)
6. Cc1cccc(N2c3nc(Nc4cccc(S(=O)(=O)NC5CCN(C)CC5)c4)ccc3N(C)C(=O)C2C)c1 (stereo not shown)
7. COCCN1c2nc(Nc3cccc(C(=O)NC4CCN(C)CC4)c3)ccc2N(C)C(=O)[C@H]1C (stereo in doubt)
8. COc1ccc(C(=O)N2CCN(C)CC2)cc1Nc1ccc2c(n1)N(C1CCOCC1)[C@H](C)C(=O)N2C

A)
7.03
7.49
6.83
6.61
6.67
6.23
6.37
7.22

// for each compound below, give its pIC50
1. C[C@@H]1C(=O)N(C)c2ccc(Nc3cccc(C(=O)N[C@H]4CC[C@H](N5CCN(CC6CC6)CC5)CC4)c3)nc2N1C1CCCCC1
2. C[C@H]1C(=O)N(C)c2ccc(Nc3cccc(S(=O)(=O)N[C@H]4CC[C@H](N5CCN(CC6CC6)CC5)CC4)c3)nc2N1C1CCOCC1
3. COc1c(Nc2ccc3c(n2)N(C2CCOCC2)[C@H](C)C(=O)N3C)cccc1C(=O)NC1CCN(C)CC1

A)
6.56
5.37
6.29
